From: ChEMBL document CHEMBL1141336

tested on: HT-29; assay: Cytotoxicity against human HT29 cells after 72 hrs by SRB assay; assay type: functional, cell-based; conditions: HT-29, 72 h
Where a name gives a salt, the structure may show the parent alone.
attribute_measured: pIC50
Would you please state pIC50, meaning minus log10 of the concentration in mol/L, as a bare number?

# pIC50 measured on HT-29 for item CC1=C[C@@H]2CC3=C([C@H](O)C[C@]4(C)[C@H]3C[C@]3(O)C=C5C=CC(=O)OC(C)(C)[C@@H]5CC[C@@H]43)[C@H](C)[C@@H]2OC1=O [KADLONGILACTONE A] = 5.84

# pIC50 measured on HT-29 for item CC(=O)[C@]1(N)Cc2c(O)c3c(c(O)c2[C@@H](O[C@H]2C[C@H](O)[C@H](O)CO2)C1)C(=O)c1ccccc1C3=O [AMRUBICIN HYDROCHLORIDE] = 5.36

# pIC50 measured on HT-29 for item CO[C@@H]1C[C@]2(C)[C@@H](C[C@]3(O)C=C4C=CC(=O)OC(C)(C)[C@@H]4CC[C@@H]23)C2=C1[C@H](C)[C@@H]1OC(=O)C(C)=C[C@@H]1C2 [KADLONGILACTONE C] = 5.68

# pIC50 measured on HT-29 for item CO[C@H]1C[C@]2(C)[C@@H](C[C@]3(O)C=C4C=CC(=O)OC(C)(C)[C@@H]4CC[C@@H]23)C2=C1[C@H](C)[C@@H]1OC(=O)C(C)=C[C@@H]1C2 [KADLONGILACTONE E] = 5.88

# pIC50 measured on HT-29 for item CC1=C[C@@H]2CC3=C([C@@H](O)C[C@]4(C)[C@H]3C[C@]3(O)C=C5C=CC(=O)OC(C)(C)[C@@H]5CC[C@@H]43)[C@H](C)[C@@H]2OC1=O [KADLONGILACTONE D] = 5.79
